Taken from patent US20240116985A1.

Kindly state IC50 for each of the entries shown.
assayed.target: full-length beta-Catenin (Uniprot ID P35222) (Homo sapiens)
Construct: 10 nM full-length beta-Catenin (Uniprot ID P35222)
Sequence (P35222 whole entry): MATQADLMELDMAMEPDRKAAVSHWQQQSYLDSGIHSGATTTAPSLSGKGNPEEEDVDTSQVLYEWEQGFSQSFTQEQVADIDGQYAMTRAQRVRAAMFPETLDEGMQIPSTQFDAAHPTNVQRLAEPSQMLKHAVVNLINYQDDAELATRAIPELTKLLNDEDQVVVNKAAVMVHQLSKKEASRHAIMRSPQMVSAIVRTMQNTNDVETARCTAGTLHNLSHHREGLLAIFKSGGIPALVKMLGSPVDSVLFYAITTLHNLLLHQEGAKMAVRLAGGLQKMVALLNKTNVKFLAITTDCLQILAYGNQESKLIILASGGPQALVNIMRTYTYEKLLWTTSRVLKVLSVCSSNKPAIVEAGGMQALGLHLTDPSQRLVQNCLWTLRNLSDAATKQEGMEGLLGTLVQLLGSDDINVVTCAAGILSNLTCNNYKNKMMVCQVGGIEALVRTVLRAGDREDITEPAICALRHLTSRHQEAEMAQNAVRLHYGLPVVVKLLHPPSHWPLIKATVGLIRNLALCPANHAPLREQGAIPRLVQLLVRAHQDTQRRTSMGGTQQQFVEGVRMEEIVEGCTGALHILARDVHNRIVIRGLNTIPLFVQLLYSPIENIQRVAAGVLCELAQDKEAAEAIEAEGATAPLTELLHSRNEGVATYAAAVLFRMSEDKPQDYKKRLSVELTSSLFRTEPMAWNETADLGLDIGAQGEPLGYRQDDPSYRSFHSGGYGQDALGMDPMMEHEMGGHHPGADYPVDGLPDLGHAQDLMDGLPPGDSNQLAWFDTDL
test.name: Fluorescence polarization IC50 (beta-catenin / 5FAM-TCF4 10-53 competition)
Assay type: binding
study.conditions: fluorescence polarization, beta-catenin; read-out: FP EC50

Give the reported IC50 for this compound. CC(=O)N1CCC[C@]12CC=CCCCC1(CCCC=CCCCOC(=O)N3CC[C@@](C(=O)N[C@@H](Cc4ccccc4Cl)C(=O)N[C@@H](Cc4csc5ccccc45)C(=O)N[C@@H](CC(C)C)C(N)=O)(C3)NC(=O)[C@H](CC(C)C)NC(=O)[C@H](Cc3ccccc3)NC(=O)[C@H](C)NC(=O)[C@H](C)NC(=O)[C@H](CC(=O)O)NC(=O)[C@H](CC(=O)O)NC1=O)NC(=O)[C@H](CC(C)(C)C)NC(=O)[C@H](CC(=O)O)NC2=O (stereo partly drawn) [I-1416]
0.057 µM

Quote IC50 reported for CC(=O)N1CCC[C@]12CC=CCCCC1(CCCC=CCCCOC(=O)N3CC[C@@](C(=O)N[C@@H](Cc4ccsc4)C(=O)N[C@@H](Cc4csc5ccccc45)C(=O)N[C@@H](CCC(N)=O)C(N)=O)(C3)NC(=O)[C@H](CC(C)C)NC(=O)[C@H](Cc3ccccc3)NC(=O)[C@H](C)NC(=O)[C@H](C)NC(=O)[C@H](CC(=O)O)NC(=O)[C@H](CC(=O)O)NC1=O)NC(=O)[C@H](CC(C)(C)C)NC(=O)[C@H](CC(=O)O)NC2=O (stereo partly drawn) [I-801] please.
0.006 µM

Check the records and state IC50 for CC(=O)N1CCC[C@]12CC=CCCCC1(CCCC=CCCCCCC[C@@](C)(C(=O)N[C@@H](Cc3ccccc3)C(=O)N[C@@H](Cc3c[nH]c4ccccc34)C(=O)NC(C)(C)C(N)=O)NC(=O)[C@H](C(C)C)NC(=O)[C@H](Cc3ccccc3)NC(=O)[C@H](C)NC(=O)[C@H](C)NC(=O)[C@H](CCC(=O)O)NC(=O)[C@H](CC(=O)O)NC1=O)NC(=O)[C@H](C)NC(=O)[C@H](CC(=O)O)NC2=O (stereo partly drawn) [I-134]
2.7 µM

###

Would you mind telling me the reported pIC50 of each entry?
assayed.target: beta-catenin/TCF4 engagement (Homo sapiens, UniProt P35222)
Construct: expressed in transfected cells; host or cells: HEK293
test.name: Nano-BRET target engagement assay (B-cat-Halo & TCF4-Luc in HEK293 cells)
Assay type: cell-based
study.conditions: absolute IC50; read-out: NanoBRET Abs IC50
In simple prose, pIC50 is minus the logarithm base ten of a concentration in moles per litre.

Retrieve pIC50 on beta-catenin/TCF4 engagement (Homo sapiens, UniProt P35222); query CCNC(=O)[C@H](CCC(N)=O)NC(=O)[C@H](Cc1csc2ccccc12)NC(=O)[C@H](Cc1ccccc1Cl)NC(=O)[C@]12CCN(C1)C(=O)OCCCC=CCCCC1(CCCC=CC[C@]3(CCCN3C(C)=O)C(=O)N[C@@H](CC(=O)O)C(=O)N[C@@H](CC(C)(C)C)C(=O)N1)C(=O)N[C@@H](CC(=O)O)C(=O)N[C@@H](Cc1cccc(C(=O)O)c1)C(=O)N[C@@H](C)C(=O)N[C@@H](C)C(=O)N[C@@H](Cc1ccccc1)C(=O)N[C@@H](CC(C)C)C(=O)N2 (some centres unmarked)
5.15

Enter measured pIC50, system beta-catenin/TCF4 engagement (Homo sapiens, UniProt P35222), for the compound shown: CC(=O)N1CCC[C@]12CC=CCCCC1(CCCC=CCCCOC(=O)N3CC[C@@](C(=O)N[C@@H](Cc4ccccc4C(F)(F)F)C(=O)N[C@@H](Cc4csc5ccccc45)C(=O)N[C@@H](CCCN4CCC(F)(F)CC4)C(N)=O)(C3)NC(=O)[C@H](CC(C)C)NC(=O)[C@H](Cc3ccccc3)NC(=O)[C@H](C)NC(=O)[C@H](C)NC(=O)[C@H](Cc3cccc(C(=O)O)c3)NC(=O)[C@H](CC(=O)O)NC1=O)NC(=O)[C@H](CC(C)(C)C)NC(=O)[C@H](CC(=O)O)NC2=O (some centres unmarked)
4.82
